Assignment: determine reported pEC50 for the given molecules.
Target: human 5-HT2C receptor (Homo sapiens, UniProt P28335, I156V/I160V/N158S)
Sequence (P28335 33-458 I156V/N158S/I160V limits assumed): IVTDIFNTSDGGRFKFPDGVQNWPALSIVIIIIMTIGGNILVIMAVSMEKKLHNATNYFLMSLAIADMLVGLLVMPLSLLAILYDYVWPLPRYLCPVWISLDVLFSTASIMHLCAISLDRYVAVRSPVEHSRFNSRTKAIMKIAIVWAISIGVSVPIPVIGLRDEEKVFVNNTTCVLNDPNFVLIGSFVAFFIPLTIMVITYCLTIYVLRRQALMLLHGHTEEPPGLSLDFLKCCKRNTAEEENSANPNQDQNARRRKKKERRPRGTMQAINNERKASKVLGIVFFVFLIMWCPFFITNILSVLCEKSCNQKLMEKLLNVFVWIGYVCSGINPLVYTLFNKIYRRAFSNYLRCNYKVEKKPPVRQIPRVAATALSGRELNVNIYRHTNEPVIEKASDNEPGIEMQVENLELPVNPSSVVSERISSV
Assay: cell-based
Numbers only, as −log10 of the molar value.

Record excerpt, results attached:
>>> recorded_result("O=C(C1CN(c2c3c(nc4ccnn24)CCNCC3)C1)N1CCc2cc(F)ccc21 [Example 31.217]")
7.25
>>> recorded_result("CN1CCc2nc3ccnn3c(N3CC(C(=O)N4CCN(C5CCCC5)CC4)C3)c2CC1 [Example 36.13]")
6.94
>>> recorded_result("O=C(C1CN(c2c3c(nc4ccnn24)CCNCC3)C1)N1C2CCCCC1CCC2 [Example 31.158]")
5.91
>>> recorded_result("O=C(C1CN(c2c3c(nc4ccnn24)CCNCC3)C1)N1CC(F)(F)C(F)(F)C1 [Example 31.200]")
7.55
>>> recorded_result("CN(Cc1cccc(C(F)(F)F)c1)C(=O)C1CN(c2c3c(nc4ccnn24)CCNCC3)C1 [Example 31.149]")
7.35

Batch request: pEC50 for each of the following molecules.
1. C#CC(C)NC(=O)C1CN(c2c3c(nc4ccnn24)CCNCC3)C1 (centres unmarked) [Example 37.109]
2. Fc1cc(OCC2CN(c3c4c(nc5ccnn35)CCNCC4)C2)ccc1Cl [Example 15.13]
3. c1ccc(COC2CN(c3c4c(nc5ccnn35)CCNCC4)C2)cc1 [Example 20]

Completion:
1: 7.10; 2: 7.55; 3: 6.46

====

Target: human 5-HT2C receptor (Homo sapiens, UniProt P28335, I156V/I160V/N158S)
Assay: cell-based
observation-type: EC50 (nM)
Numbers only, in nM.

Sample answers from the record:
>>> recorded_result("CN(C)CCCN(C)C(=O)C1CN(c2c3c(nc4ccnn24)CCNCC3)C1 [Example 37.41]")
8
>>> recorded_result("Cc1ccc(F)c(OCC2CN(c3c4c(nc5ccnn35)CCNCC4)C2)c1F [Example 15.24]")
54
>>> recorded_result("C#CCN1CCN(C(=O)C2CN(c3c4c(nc5ccnn35)CCNCC4)C2)CC1 [Example 37.39]")
7
>>> recorded_result("Cc1cnn2c(N3CC(C(=O)N4CCCC(F)(F)C4)C3)c3c(nc12)CCNCC3 [Example 31.238]")
13
>>> recorded_result("O=C(C1CN(c2c3c(nc4ccnn24)CCNCC3)C1)N1CCc2ccccc21 [Example 31.143]")
49
>>> recorded_result("CC(C)N(C)C(=O)C1CN(c2c3c(nc4ccnn24)CCNCC3)C1 [Example 31.6]")
5940
>>> recorded_result("O=C(C1CN(c2c3c(nc4ccnn24)CCNCC3)C1)N1Cc2ccccc2C1 [Example 31.44]")
113
>>> recorded_result("O=C(C1CN(c2c3c(nc4ccnn24)CCNCC3)C1)N1CCC1 [Example 31.7]")
3300

Answer for every listed entry: what is its EC50? The entries follow.
1. O=C(C1CN(c2c3c(nc4ccnn24)CCNCC3)C1)N1CC[C@@H](c2ccccc2)C1 [Example 31.223]
2. Cc1coc(C2CN(c3c4c(nc5ccnn35)CCNCC4)C2)n1 [Example 13]
3. CC1(C)CCN(C(=O)C2CN(c3c4c(nc5c(Br)cnn35)CCNCC4)C2)CC1 [Example 31.138]
4. FC(F)(F)Oc1ccc(OC2CN(c3c4c(nc5ccnn35)CCNCC4)C2)cc1 [Example 35.32]
5. COC1(C)CCN(C(=O)C2CN(c3c4c(nc5ccnn35)CCNCC4)C2)CC1 [Example 31.220]
6. CN(CCc1ccc2ccccc2c1)C(=O)C1CN(c2c3c(nc4ccnn24)CCNCC3)C1 [Example 31.71]
7. O=C(C1CN(c2c3c(nc4ccnn24)CCNCC3)C1)N1CC[C@@H]2CCCC[C@@H]2C1 [Example 31.131]

Completion:
39
628
71
411
55
366
74

Report EC50 for each item below.
1. O=C(C1CN(c2c3c(nc4ccnn24)CCNCC3)C1)N1CCN(C2CCCCC2)CC1 [Example 37.38]
2. CC(C)C(C)NC(=O)C1CN(c2c3c(nc4ccnn24)CCNCC3)C1 (stereo not shown) [Example 37.77]
3. O=C(C1CN(c2c3c(nc4ccnn24)CCNCC3)C1)N1CCC(O)(c2cccc(C(F)(F)F)c2)CC1 [Example 31.226]

Completion:
3
95
74

Below is a list of compounds. For each, state its recorded EC50.
1. c1ccc2c(c1)OCCN2c1c2c(nc3ccnn13)CCNCC2 [Example 1.39]
2. O=C(C1CCCCC1)N1CCN(C(=O)C2CN(c3c4c(nc5ccnn35)CCNCC4)C2)CC1 [Example 37.101]
3. c1nn2c(N3CCC3)c3c(nc2c1CCC1CC1)CCNCC3 [Example 6.1]
4. O=C(C1CN(c2c3c(nc4ccnn24)CCNCC3)C1)N1CCC(Oc2ccccn2)CC1 [Example 31.230]
5. CCN(C)C(=O)C1CN(c2c3c(nc4ccnn24)CCNCC3)C1 [Example 31.4]

Completion:
2580
70
365
54
685

Give me EC50 for each of these compounds, listed below.
1. CC1CN(C(=O)C2CN(c3c4c(nc5ccnn35)CCN(C)CC4)C2)CCO1 (stereo not shown) [Example 36.11]
2. CC(C)COC1CN(c2c3c(nc4ccnn24)CCNCC3)C1 [Example 20.1]
3. c1cc2nc3c(c(N4CC(OCC5CC5)C4)n2n1)CCNCC3 [Example 20.3]
4. C[C@@H](NC(=O)C1CN(c2c3c(nc4ccnn24)CCNCC3)C1)C1CCCCC1 [Example 31.188]

Completion:
138
359
469
101

====

Target: human 5-HT2C receptor (Homo sapiens, UniProt P28335, I156V/I160V/N158S)
Test: cell-based
So I've got a bunch of molecules here, and I need their EC50 values.

See these solved cases before continuing.
>>> recorded_result("CC1CN(C(=O)C2CN(c3c4c(nc5ccnn35)CCNCC4)C2)CCO1 (centres unmarked)")
"91 nM"
>>> recorded_result("CN(Cc1ccccc1)C(=O)C1CN(c2c3c(nc4ccnn24)CCNCC3)C1")
"50 nM"
>>> recorded_result("NC1CCN(C(=O)C2CN(c3c4c(nc5ccnn35)CCNCC4)C2)CC1")
"2 nM"

# per-item lookup of EC50; items listed below
1. Cc1nc(CN(C)C(=O)C2CN(c3c4c(nc5ccnn35)CCNCC4)C2)c(C)o1
2. O=C(C1CN(c2c3c(nc4ccnn24)CCNCC3)C1)N1CCC(c2ccccc2)(c2ccccc2)CC1

Completion:
["53 nM", "819 nM"]

Report EC50 for every entry below.
1. CN(C)C1CCN(C(=O)C2CN(c3c4c(nc5ccnn35)CCNCC4)C2)CC1
2. c1cc2nc3c(c(N4CCCCC4)n2n1)CCNCC3
3. CCCCn1c(C2CN(c3c4c(nc5ccnn35)CCNCC4)C2)nc2ccccc21
4. O=C(NC1CCCOC1)C1CN(c2c3c(nc4ccnn24)CCNCC3)C1 (centres unmarked)
5. O=C(C1CN(c2c3c(nc4ccnn24)CCNCC3)C1)N1CCC(c2ccncc2)CC1
6. CN1CCc2nc3ccnn3c(N3CC(C(=O)N4CC(N(C)C)C4)C3)c2CC1
7. Cc1ccc(F)c(OCC2CN(c3c4c(nc5ccnn35)CCNCC4)C2)c1
8. COc1ccc(OCC2CN(c3c4c(nc5ccnn35)CCNCC4)C2)c(F)c1

Completion:
1. 1 nM
2. 4560 nM
3. 1150 nM
4. 44 nM
5. 9 nM
6. 269 nM
7. 7 nM
8. 7 nM

Can you give me EC50 for all of these, one by one?
1. CCC(C)CNC(=O)C1CN(c2c3c(nc4ccnn24)CCNCC3)C1 (centres unmarked)
2. O=C(NC1CCc2ccccc21)C1CN(c2c3c(nc4ccnn24)CCNCC3)C1 (centres unmarked)
3. COc1ccc(Cl)c(OCC2CN(c3c4c(nc5ccnn35)CCNCC4)C2)c1
4. CC(C)c1ccccc1OC1CCN(C(=O)C2CN(c3c4c(nc5ccnn35)CCNCC4)C2)CC1

Completion:
1: 41 nM; 2: 49 nM; 3: 7 nM; 4: 124 nM

====

Biological target: human 5-HT2C receptor (Homo sapiens, UniProt P28335, I156V/I160V/N158S)
Assay: cell-based
pEC50: −log10 of the molar value.
Decision: pEC50 >= 7 yields condition met, all other cases yield condition not met.

See these solved cases before continuing.
>>> discrete_label("CC(C)CCNC(=O)C1CN(c2c3c(nc4ccnn24)CCN(C)CC3)C1")
"condition not met"
>>> discrete_label("CC1C=CC(C)N1C(=O)C1CN(c2c3c(nc4ccnn24)CCNCC3)C1 (centres unmarked)")
"condition not met"
>>> discrete_label("CN(C)C1CN(C(=O)C2CN(c3c4c(nc5ccnn35)CCNCC4)C2)C1")
"condition met"
>>> discrete_label("COc1cccc(COC2CN(c3c4c(nc5ccnn35)CCNCC4)C2)c1")
"condition not met"
>>> discrete_label("COc1ccc(OCC2CN(c3c4c(nc5ccnn35)CCNCC4)C2)c(Cl)c1")
"condition met"

Prompt: Exam item: decide whether the reported pEC50 for `COc1ccc(CN(C)C(=O)C2CN(c3c4c(nc5ccnn35)CCNCC4)C2)cc1` is at least 7.
Completion: condition met

Prompt: Could you do the same for `Brc1cnn2c(N3CC(Oc4ccccc4)C3)c3c(nc12)CCNCC3` , please?
Completion: condition met

Prompt: Same lookup for `Cc1cnn2c(N3CC(C(=O)N(C)Cc4ccc(OC(F)F)cc4)C3)c3c(nc12)CCNCC3` , please.
Completion: condition met
